The molecules listed here are annotated with their viability, T/C.
# Test system: 292921-168-R tumor spheroid viability;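 also: spheroids exposed to compounds for 7 days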
# ASSAY: Anticancer human tumor 292921-168-R patient-derived pancreatic carcinoma cell line growth inhibition
# MEASUREMENT_PARAMETERS: second compound 30 pM; first compound 0.316 µM; stronger effect = lower value; spheroids with HUVEC and MSC

MOLECULE	viability, T/C (%)
[2H]c1nc(C)nc([2H])c1-c1cc(NC[C@@H](C)c2cccc3c(C(=O)NC)ccnc23)ncn1 + COc1cc2c(cc1O)CCNC21CSC2c3c(OC(C)=O)c(C)c4c(c3C(COC1=O)N1C(O)C3Cc5cc(C)c(OC)c(O)c5C(C21)N3C)OCO4	99.7
CC(C)n1c(=O)n(C)c2cnc3cc(F)c(-c4ccc(OCCCN5CCCCC5)nc4)cc3c21 + COc1cc2c(cc1O)CCNC21CSC2c3c(OC(C)=O)c(C)c4c(c3C(COC1=O)N1C(O)C3Cc5cc(C)c(OC)c(O)c5C(C21)N3C)OCO4	60
COc1cc(C)[nH]c(=O)c1CN1CCc2c(Cl)cc(C(OC)C3COC3)c(Cl)c2C1=O (stereo unspecified) + COc1cc2c(cc1O)CCNC21CSC2c3c(OC(C)=O)c(C)c4c(c3C(COC1=O)N1C(O)C3Cc5cc(C)c(OC)c(O)c5C(C21)N3C)OCO4	110
Cc1cc(C)c(CNC(=O)c2cc(-c3ccc(CN4CCOCC4)cc3)cc3c2cnn3C2CCCC2)c(=O)[nH]1 + COc1cc2c(cc1O)CCNC21CSC2c3c(OC(C)=O)c(C)c4c(c3C(COC1=O)N1C(O)C3Cc5cc(C)c(OC)c(O)c5C(C21)N3C)OCO4	110
CC1COCCN1c1cc(-c2ccnn2C)c2ccnc(-c3ccn[nH]3)c2n1 (stereo unspecified) + COc1cc2c(cc1O)CCNC21CSC2c3c(OC(C)=O)c(C)c4c(c3C(COC1=O)N1C(O)C3Cc5cc(C)c(OC)c(O)c5C(C21)N3C)OCO4	10.4
COc1ccc([C@@H](O)c2cc(-c3ncnc4cc(N5CCOCC5)ccc34)c(F)cc2Cl)nn1 + COc1cc2c(cc1O)CCNC21CSC2c3c(OC(C)=O)c(C)c4c(c3C(COC1=O)N1C(O)C3Cc5cc(C)c(OC)c(O)c5C(C21)N3C)OCO4	95.6
